OBSERVABLE: melting point

Look over these answered cases.
1) CCCCCCOc1cccc(C[C@H](NC(=O)c2cccc(-c3ncco3)c2)[C@H](O)CNCc2cccc(CC)c2)c1 [Example 93A]    117 to 120 °C
2) CCCCCCOc1cccc(C[C@H](NC(C)=O)[C@H](O)CNCc2cccc(CC)c2)c1 [Example 93B]    102 to 105 °C
3) CCCCOc1cccc(C[C@H](NC(=O)c2coc(NS(C)(=O)=O)n2)[C@H](O)CNCc2cccc(CC)c2)c1 [Example 50a]    78 to 80 °C
4) CCCCCCOc1cccc(C[C@H](NC(=O)c2coc(NS(C)(=O)=O)n2)[C@H](O)CNCc2cccc(CC)c2)c1    85 to 90 °C

Ask: // fetch melting point given entry CCCCOc1cccc(C[C@H](N)[C@H](O)CNCc2cccc(CC)c2)c1.Cl.Cl
Reply: 197 to 199 °C

Ask: // fetch melting point given entry CCCCOc1cccc(C[C@H](NC(C)=O)[C@H](O)CNCc2cccc(CC)c2)c1 [Example 50b]
Reply: 112 to 114 °C

Attribution: patent US7312360B2
